molecular target: Glutathione peroxidase 1 (Homo sapiens) (UniProt P07203); experiment: Primary qHTS Assay for Inhibitors of Recombinant Selenoprotein Glutathione Peroxidase 1 (GPX1) (AID 1845191); conditions: recombinant GPX1, GR-coupled NADPH fluorescence, 15 min; series mostly up to 48.8 µM; note: nearly all actives have a fitted effect of over 65% in size
Sequence (P07203 whole entry, looked up): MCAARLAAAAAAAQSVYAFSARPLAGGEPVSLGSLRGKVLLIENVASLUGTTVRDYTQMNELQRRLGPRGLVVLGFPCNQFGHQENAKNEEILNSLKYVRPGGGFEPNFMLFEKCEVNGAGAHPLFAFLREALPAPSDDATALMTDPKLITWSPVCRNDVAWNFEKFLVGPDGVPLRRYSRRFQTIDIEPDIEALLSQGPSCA
Results filed as inconclusive are left out. The source made the active and inactive calls. Calls come from the whole dose curve; as a rule, active = well fitted inhibition curve with a large enough effect; inconclusive = small, poorly fitted or top-dose-only effect; inactive = flat fitted curve, though single readings scatter.
API: response.call in class 1 = active, class 0 = inactive

See these solved cases before continuing.
molecule	group
C=CC(C)(/C=C/c1ccc(O)cc1)CCC=C(C)C (stereo not given)	class 0
CCNC(=O)Nc1ccc(-c2nc3c(c(N4CCOC[C@@H]4C)n2)CCN(C2COC2)C3)cc1	class 0
C[C@@H]1CC2C3C[C@H](F)C4=CC(=O)C=C[C@]4(C)[C@@]3(F)[C@@H](O)C[C@]2(C)[C@@]1(OC(=O)c1ccco1)C(=O)SCF (stereo not given in full)	class 0
CCOC(=O)C1=CCCCC1S(=O)(=O)Nc1ccc(F)cc1Cl (stereo not given)	class 0
Nc1nonc1-c1nc2cnccc2n1C1CCCCC1	class 0

Per the assay record, what outcome was assigned to CC(C)[C@H]1CC[C@H](C)C[C@H]1O ? class 0

Test call, this molecule: CC/C(=C(/c1ccc(/C=C/C(=O)O)cc1)c1ccc2[nH]ncc2c1)c1ccc(F)cc1Cl class 0

Assay outcome for Cc1noc(C)c1-c1ccc(-c2cc(C(N)=O)c(NC(N)=O)s2)c(O[C@H]2CCNC2)c1 : what was it? class 0

Call for entry CSc1ccc(C(=O)/C=C/c2cc(C)c(OC(C)(C)C(=O)O)c(C)c2)cc1 : class 0

Assay result, entry O=C(Nc1ncc(SCCN2CCCC2)s1)[C@]1(c2ccc(S(=O)(=O)C3CC3)cc2)C[C@H]1C1CCCCC1 — outcome? class 0

What did this assay record as the result for Cc1cc(O[C@@H](CCC(F)(F)F)c2ccc(C(=O)NCCC(=O)O)cc2)cc(C)c1-c1ccc(C(C)(C)C)cc1 ? class 0

Lab log entry: N#Cc1cc2cc(CN3CCC(Nc4ncnc5sc(CC(F)(F)F)cc45)CC3)c(O)cc2n1Cc1cn[nH]c1 — outcome as called in the assay? class 0

So what was the verdict on Cc1ccc(/C=C2\C(=O)C3(C)CCC2C3(C)C)cc1 (stereo not given) in this test? class 0

Recorded call for CC[C@H](C)[C@@H]([C@@H](CC(=O)N1CCC[C@H]1[C@H](OC)[C@@H](C)C(=O)N[C@@H](Cc1ccccc1)c1nccs1)OC)N(C)C(=O)[C@@H](NC(=O)[C@H](C(C)C)N(C)C)C(C)C ? class 0

What classification did C#C[C@]1(O)CC[C@@H]2[C@@H]3CCC4=CCCC[C@@H]4[C@H]3C(=C)C[C@@]21CC end up with in this test? class 0

What outcome does the record of this test show for COc1ccccc1-c1nc(SCC(=O)Nc2ccc(C)c(C)c2)n[nH]1 ? class 0

Per the assay record, what outcome was assigned to COC(=O)N[C@H](C(=O)N1CCC[C@H]1c1ncc(-c2ccc(-c3ccc(-c4cnc([C@@H]5CCCN5C(=O)[C@@H](NC(=O)OC)C(C)C)[nH]4)cc3)cc2)[nH]1)C(C)C ? class 1

So what was the verdict on CCC=CCC=CCC=CCCCCCCCC(=O)O in this test? class 0

Outcome? CC(=O)O/N=C1/C(c2c(O)[nH]c3cc(Br)ccc23)=Nc2ccccc21 class 0

What call does the record list for C[C@]12CCCN1CC1=NNC(=O)c3cc(F)cc4[nH]c2c1c34 ? class 0

// outcome(item) with item = COc1ccc(/C=C\c2cc(OC)c(OC)c(OC)c2)cc1O class 0

Name the outcome recorded for COc1c/c(=C2\C=c3ccccc3=N2)[nH]/c1=C/c1[nH]c(C)cc1C in the assay. class 0

Please share the test call associated with C=CC1=C(C(=O)O)N2C(=O)[C@@H](NC(=O)/C(=N\OCC(=O)O)c3csc(N)n3)[C@H]2SC1 . class 1

Per the assay record, what outcome was assigned to Cc1cc(C(=O)Nc2nc3cccc(Cl)c3n2C2CCCCN(C(=O)/C=C/CN(C)C)C2)ccn1 (stereo not given) ? class 0

In this assay, the call recorded for CC(=O)NCCNc1cc(Cl)nn2c(-c3cccc(S(=O)(=O)N(C)C)c3)c(C)nc12 was what? class 0
